Parameter: ADCC-HEK293. Scope: all listed entries.
Target: T1, human SLC34A2 (human, UniProt O95436 1-690)
T1 sequence (looked up): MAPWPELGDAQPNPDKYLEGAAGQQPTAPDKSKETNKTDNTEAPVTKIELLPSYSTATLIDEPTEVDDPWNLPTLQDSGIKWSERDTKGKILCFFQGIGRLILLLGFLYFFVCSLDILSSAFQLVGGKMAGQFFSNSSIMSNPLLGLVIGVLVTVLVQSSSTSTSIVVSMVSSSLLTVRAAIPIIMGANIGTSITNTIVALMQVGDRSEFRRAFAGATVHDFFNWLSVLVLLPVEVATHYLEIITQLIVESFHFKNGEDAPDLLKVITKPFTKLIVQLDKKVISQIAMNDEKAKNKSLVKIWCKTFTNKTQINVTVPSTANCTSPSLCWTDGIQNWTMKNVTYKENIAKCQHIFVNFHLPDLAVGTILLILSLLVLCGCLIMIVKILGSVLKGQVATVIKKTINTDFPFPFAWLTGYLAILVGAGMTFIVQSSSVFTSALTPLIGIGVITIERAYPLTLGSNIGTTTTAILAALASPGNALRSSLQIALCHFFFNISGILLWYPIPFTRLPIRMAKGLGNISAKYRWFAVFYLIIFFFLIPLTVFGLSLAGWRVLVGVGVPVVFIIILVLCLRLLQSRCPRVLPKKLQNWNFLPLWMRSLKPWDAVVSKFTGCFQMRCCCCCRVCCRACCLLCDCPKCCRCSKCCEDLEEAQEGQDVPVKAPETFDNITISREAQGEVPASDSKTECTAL
Test: cell-based or functional assay

| binder | ADCC-HEK293, nM |
| --- | --- |
| 30H9B8F9.p1.z5 hIgG1 (antibody, V domains shown, humanized hIgG1) VH: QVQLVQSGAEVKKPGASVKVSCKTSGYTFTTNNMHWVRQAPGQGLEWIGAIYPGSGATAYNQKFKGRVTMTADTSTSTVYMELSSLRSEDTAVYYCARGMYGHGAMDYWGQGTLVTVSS VL: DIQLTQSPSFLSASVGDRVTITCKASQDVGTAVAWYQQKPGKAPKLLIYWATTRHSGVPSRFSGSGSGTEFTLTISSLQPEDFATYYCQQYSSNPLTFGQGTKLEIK | 1.4 |
| 63A11D5B4.p1.z9 hIgG1 (antibody, V domains shown, humanized hIgG1) VH: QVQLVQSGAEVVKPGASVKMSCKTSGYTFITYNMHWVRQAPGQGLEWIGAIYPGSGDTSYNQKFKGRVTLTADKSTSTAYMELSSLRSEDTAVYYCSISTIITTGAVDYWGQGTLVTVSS VL: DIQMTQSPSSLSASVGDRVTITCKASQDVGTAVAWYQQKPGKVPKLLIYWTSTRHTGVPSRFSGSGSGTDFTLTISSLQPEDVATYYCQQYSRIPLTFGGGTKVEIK | 0.52 |
| 91C9F1.p1.z7 hIgG1 (antibody, V domains shown, humanized hIgG1) VH: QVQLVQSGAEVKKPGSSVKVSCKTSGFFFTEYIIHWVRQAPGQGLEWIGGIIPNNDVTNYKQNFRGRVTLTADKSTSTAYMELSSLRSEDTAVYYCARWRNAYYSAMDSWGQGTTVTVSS VL: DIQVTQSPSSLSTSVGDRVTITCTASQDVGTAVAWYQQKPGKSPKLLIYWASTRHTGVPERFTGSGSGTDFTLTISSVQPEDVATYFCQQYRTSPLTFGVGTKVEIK | 0.75 |
| 62G10E4G8.p3.z15 hIgG1 (antibody, V domains shown, humanized hIgG1) VH: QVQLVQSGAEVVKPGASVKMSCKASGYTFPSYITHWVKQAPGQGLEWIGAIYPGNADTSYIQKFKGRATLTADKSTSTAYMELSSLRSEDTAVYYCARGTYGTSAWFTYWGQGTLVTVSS VL: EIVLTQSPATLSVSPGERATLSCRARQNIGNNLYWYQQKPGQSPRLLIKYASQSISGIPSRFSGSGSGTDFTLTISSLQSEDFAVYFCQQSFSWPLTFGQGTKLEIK | 1.55 |
